// provenance: ChEMBL document CHEMBL4765371

Species: Sus scrofa
Assay: Inhibition of porcine kidney Na+/K+ ATPase at 50 uM assessed as enzyme residual activity using ATP as substrate incubated for 2 mins followed by substrate addition and measured after 6 mins (reference value: 100 +/-3.16%)
Assay type: tissue-based
Conditions: time 8.0 min
Dear colleague, classification is by Activity, with ranges listed here: low group: < 60%; middle group: ≥ 60% and < 80%; high group: ≥ 80%

Hey, which category is "C[C@]12CC[C@H](O)C[C@H]1CC[C@@H]1[C@@H]2CC[C@]2(C)[C@@H](c3ccoc3)[C@@H](O)[C@H]3O[C@]132" in, do you know?
middle group

Field entry: "CC(C)(C)[Si](C)(C)O[C@H]1CC[C@@]2(C)[C@H](CC[C@@H]3[C@@H]2CC[C@]2(C)[C@@H](c4ccoc4)[C@@H](O)C[C@]32O)C1"
low group

Field entry: "CC(=O)O[C@H]1C[C@]2(O)[C@@H]3CC[C@@H]4C[C@@H](O)CC[C@]4(C)[C@H]3CC[C@]2(C)[C@H]1c1ccoc1"
low group

Field entry: CC(=O)O[C@H]1CC[C@@]2(C)[C@H](CC[C@@H]3[C@@H]2CC[C@]2(C)[C@@H](C4=CC(=O)OC4)[C@@H](OC(C)=O)C[C@]32O)C1 [GITOXIGENIN DIACETATE]
high group

Field entry: "CC(=O)O[C@H]1C[C@]2(O)[C@@H]3CC[C@@H]4C[C@@H](O)CC[C@]4(C)[C@H]3CC[C@]2(C)[C@H]1C1=CC(=O)OC1"
middle group

Field entry: "CC(=O)O[C@H]1C[C@@]23O[C@@H]4OC(=O)C=C4[C@@H]1[C@@]2(C)CC[C@H]1[C@H]3CC[C@@H]2C[C@@H](O)CC[C@@]21C"
high group

Field entry: "CC(C)(C)[Si](C)(C)O[C@H]1CC[C@@]2(C)[C@H](CC[C@@H]3[C@@H]2CC[C@]2(C)[C@@H](c4ccoc4)[C@@H](O)[C@H]4O[C@]342)C1"
middle group

Field entry: "C[C@]12CC[C@H](O)C[C@H]1CC[C@@H]1[C@@H]2CC[C@]2(C)[C@@H](c3ccoc3)[C@@H](O)C[C@]12O"
low group

Field entry: "CC(=O)O[C@H]1C[C@]2(O)[C@@H]3CC[C@@H]4C[C@@H](O[Si](C)(C)C(C)(C)C)CC[C@]4(C)[C@H]3CC[C@]2(C)[C@H]1c1ccoc1"
middle group

* * *

System: MCF7
Experiment: Cytotoxicity against human MCF7 cells assessed as reduction in cell viability incubated for 72 hrs by resazurin assay
Type: functional, cell-based
Conditions: MCF7, 72 h
endpoint: pIC50
Please report pIC50 as the negative decimal logarithm of the molar concentration, giving only the number.

Record lookup: for MCF7, what pIC50 belongs to "CC(C)(C)[Si](C)(C)O[C@H]1CC[C@@]2(C)[C@H](CC[C@@H]3[C@@H]2CC[C@]2(C)[C@@H](c4ccoc4)[C@@H](O)C[C@]32O)C1" ?
4.71

Field entry: CC(=O)O[C@H]1CC[C@@]2(C)[C@H](CC[C@@H]3[C@@H]2CC[C@]2(C)[C@@H](C4=CC(=O)OC4)[C@@H](OC(C)=O)C[C@]32O)C1 [GITOXIGENIN DIACETATE]
5.77

Field entry: "CC(=O)O[C@H]1CC[C@@]2(C)[C@H](CC[C@@H]3[C@@H]2CC[C@]2(C)[C@@H](c4ccoc4)[C@@H](OC(C)=O)C[C@]32O)C1"
4.69

Field entry: "CC(=O)O[C@H]1C[C@]2(O)[C@@H]3CC[C@@H]4C[C@@H](O[Si](C)(C)C(C)(C)C)CC[C@]4(C)[C@H]3CC[C@]2(C)[C@H]1C1=CC(=O)OC1"
4.69

Field entry: "C[C@]12CC[C@H](O)C[C@H]1CC[C@@H]1[C@@H]2CC[C@]2(C)[C@@H](c3ccoc3)[C@@H](O)C[C@]12O"
4.97

Field entry: "CC(C)(C)[Si](C)(C)O[C@H]1CC[C@@]2(C)[C@H](CC[C@@H]3[C@@H]2CC[C@]2(C)[C@@H](c4ccoc4)[C@@H](O)[C@H]4O[C@]342)C1"
4.85

Field entry: "CC(=O)O[C@H]1C[C@]2(O)[C@@H]3CC[C@@H]4C[C@@H](O)CC[C@]4(C)[C@H]3CC[C@]2(C)[C@H]1c1ccoc1"
4.79
